# testedTarget: Sodium- and chloride-dependent glycine transporter 1 (Homo sapiens, UniProt P48067)
# Sequence (P48067 whole entry): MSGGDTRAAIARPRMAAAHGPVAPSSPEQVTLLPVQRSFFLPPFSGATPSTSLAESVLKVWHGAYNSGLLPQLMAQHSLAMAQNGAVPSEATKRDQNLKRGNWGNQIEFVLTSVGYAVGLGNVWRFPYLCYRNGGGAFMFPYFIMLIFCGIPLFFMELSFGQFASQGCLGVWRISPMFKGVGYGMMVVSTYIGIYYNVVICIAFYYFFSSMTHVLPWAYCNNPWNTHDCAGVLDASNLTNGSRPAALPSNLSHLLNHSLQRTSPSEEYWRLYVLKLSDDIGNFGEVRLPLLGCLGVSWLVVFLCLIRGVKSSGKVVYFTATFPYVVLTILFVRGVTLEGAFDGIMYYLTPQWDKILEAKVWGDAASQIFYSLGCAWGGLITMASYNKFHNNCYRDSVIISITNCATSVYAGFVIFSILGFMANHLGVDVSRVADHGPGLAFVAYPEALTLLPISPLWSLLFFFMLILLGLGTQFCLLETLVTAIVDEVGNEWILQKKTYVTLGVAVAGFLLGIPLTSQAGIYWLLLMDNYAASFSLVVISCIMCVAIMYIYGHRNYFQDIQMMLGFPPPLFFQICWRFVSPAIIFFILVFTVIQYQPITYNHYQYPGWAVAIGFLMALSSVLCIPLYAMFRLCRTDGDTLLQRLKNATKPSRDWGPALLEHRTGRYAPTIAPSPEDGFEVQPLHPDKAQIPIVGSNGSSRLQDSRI
# assayRemarks: Inhibition of [3H]glycine uptake at human GlyT1 by radiometric assay
So I've got a bunch of compounds here, and I need their pEC50 values.
The read-out pEC50 is expressed as -log10 of concentration in moles per litre.

Given the compound O=C1NCC(c2ccccc2)C12CCN(C1CCCCC1(O)c1cccc(F)c1)CC2 (single isomer, unassigned; diastereomer 4) , write its reported pEC50.
5.28

Given the compound O=C1NCN(c2ccccc2)C12CCN(C1CCCCC1(O)c1ccccc1)CC2 (centres undefined) , write its reported pEC50.
7.36

Given the compound Cc1ccc(C2(O)CCCCC2N2CCC3(CC2)C(=O)NCC3c2ccc(F)cc2)cc1 (single isomer, unassigned; diastereomer 3) , write its reported pEC50.
6.36

Given the compound O=C1NCC(c2ccc(F)cc2)C12CCN(C1CCCCC1(O)c1cccc(F)c1)CC2 (single isomer, unassigned; diastereomer 4) , write its reported pEC50.
6.19

Given the compound O=C1NCC(c2ccc(F)cc2)C12CCN(C1CCCCC1(O)c1cccc(Cl)c1)CC2 (stereo in doubt; form 1) , write its reported pEC50.
6.93

Given the compound Cc1ccccc1C1(O)CCCCC1N1CCC2(CC1)C(=O)NCC2c1ccc(F)cc1 (single isomer, unassigned; diastereomer 1) , write its reported pEC50.
6.22

Given the compound COc1ccc(C2(O)CCCCC2N2CCC3(CC2)C(=O)NCC3c2ccc(F)cc2)cc1 (single isomer, unassigned; diastereomer 2) , write its reported pEC50.
5.93

Given the compound O=C1NCC(c2ccccc2)C12CCN(C1CCCCC1(O)c1cccc(F)c1)CC2 (single isomer, unassigned; diastereomer 2) , write its reported pEC50.
5.59

Given the compound Cc1ccc(C2(O)CCCCC2N2CCC3(CC2)C(=O)NCC3c2ccc(F)cc2)cc1 (single isomer, unassigned; diastereomer 4) , write its reported pEC50.
6.88

Given the compound Cc1ccc(C2(O)CCCCC2N2CCC3(CC2)C(=O)NCC3c2ccc(F)cc2)cc1 (single isomer, unassigned; diastereomer 1) , write its reported pEC50.
6.38

Given the compound O=C1NCC(c2ccc(F)cc2)C12CCN(C1CCCCC1(O)c1cccc(F)c1)CC2 (single isomer, unassigned; diastereomer 1) , write its reported pEC50.
7.02

Given the compound O=C1NC[C@@H](c2ccccc2)C12CCN(C1CCCCC1c1ccccc1)CC2 (stereo in doubt; 27) , write its reported pEC50.
7.21
